B1: CPEB3 Ribozyme (parent)
chain: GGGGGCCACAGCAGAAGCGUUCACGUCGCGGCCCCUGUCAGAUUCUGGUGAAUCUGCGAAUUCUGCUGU

Variants of: B1
Experiment: self-cleavage, relative activity (ratio to wild type); higher = more cleavage; co-transcriptional
Rule: Condition met for self-cleavage not less than 0.4, Condition not met for anything less.

Reference set, count: 5
[
  {
    "RESIDUE STRING": "GGGGGCCACAGCAGAAGCGUUCACGUCGCGGCCCCUGUCAGAUUCUGGAGAAUCUGUGAAUUCUGCUGU [U49A C57U]",
    "LABEL CLASS": "Condition not met"
  },
  {
    "RESIDUE STRING": "GGGGGCCACAGCAGAAGCGUUCACGUCGCGGCCCCUGUCAGAUUCUGGUGAAUCUGCCAAUUCUGCUGU [G58C]",
    "LABEL CLASS": "Condition met"
  },
  {
    "RESIDUE STRING": "GGGGGCCACAGCAGAAGCGUUCCCGUCGCGGCCCCUGUCAGAUUCUGGUGAAUCUGCGAAUUCUGCUAU [A23C G68A]",
    "LABEL CLASS": "Condition met"
  },
  {
    "RESIDUE STRING": "GGGGGCCACAGCAGAAGCGUUCACGUCGCGGCCCCUGUCAGAUUCUGGUGAAUCUGCGGAUACUGCUGU [A59G U62A]",
    "LABEL CLASS": "Condition met"
  },
  {
    "RESIDUE STRING": "GGGGCCCACAGCAGAAGCGUUCACGUGGCGGCCCCUGUCAGAUUCUGGUGAAUCUGCGAAUUCUGCUGU [G5C C27G]",
    "LABEL CLASS": "Condition not met"
  }
]

Query string: Has GGUGGCCACAGCAGAAGCGUUCACGUCGAGGCCCCUGUCAGAUUCUGGUGAAUCUGCGAAUUCUGCUGU [G3U C29A] a recorded self-cleavage greater than or equal to 0.4?
Result string: Condition not met

Query string: Has UGGGGCCACAGCAGAAGCGUUCACGUCGCGGCCCCUGUCAGAUUCUCGUGAAUCUGCGAAUUCUGCUGU [G1U G47C] a recorded self-cleavage greater than or equal to 0.4?
Result string: Condition not met

Query string: Has GGGGGCCACAGCAGAAGCGUUGACGUCGCGGUCCCUGUCAGAUUCUGGUGAAUCUGCGAAUUCUGCUGU [C22G C32U] a recorded self-cleavage greater than or equal to 0.4?
Result string: Condition not met
